Recorded composite z-score, one value per entry.
Test system: Plasmodium falciparum Sir2 (PF13_0152, Sir2A)
EXPERIMENT DESCRIPTION: pfSir2 binders on small-molecule microarrays, primary screen, biochemical, small-molecule microarray, 635 nm fluorescence (AID 1098);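 also: score merges spot fluorescence intensity with its signal-to-noise ratio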
TEST CONDITIONS: small-molecule microarray binding, fluorescence 635 nm; higher = more signal
// return just the number, without any unit appended

The following compounds have reported results that may help.
COMPOUND	RESULT VALUE
COc1cc2c(cc1OC)CN(C(=O)[C@@H]1[C@H]3C(=O)O[C@H](c4ccccc4)[C@H](c4ccccc4)N3[C@H](c3ccc(OCCO)cc3)[C@@]13C(=O)Nc1ccc(C#CC4(O)CCCCCC4)cc13)CC2	1.21
CN(C)c1ccc(C(O)C2C=CC3C(=O)N(c4ccccc4)C(=O)C3N2Nc2ccc([N+](=O)[O-])cc2)cc1 (configuration not stated)	1.53
[N-]=[N+]=NCc1ccccc1C[C@@]1(C(=O)NCc2ccccc2)N=C(c2ccc(OCCCO)cc2)O[C@@H]1c1ccccc1N=[N+]=[N-]	-0.108
COCCCNC(=O)[C@@]1(Sc2ccc(C)cc2)CC(=O)N(C2CCCCC2)[C@@H]1c1ccc(CO)cc1	0.0677
O=C1O[C@@H](c2ccccc2)[C@@H](c2ccccc2)N2[C@@H](c3ccc(O)cc3)[C@]3(C(=O)Nc4ccc(C#CC5(O)CCCCCC5)cc43)[C@@H](C(=O)NC[C@H](O)c3ccccc3)[C@H]12	1.29
CCOc1cc(C(O)C2C=CC3C(=O)N(c4ccccc4)C(=O)C3N2Nc2ccc(C#N)cc2)ccc1O (configuration not stated)	0.146

// next entry
Ask: Could you please provide reported composite z-score for COc1ccc([Si](C)(C)[C@@H]2[C@@H](CC(=O)N(CCO)Cc3ccccc3)O[C@]3(C(=O)N(c4ccccc4)c4ccccc43)[C@H]2C)cc1 ? Thanks!
Reply: 0.908

----------
Recorded z-score, one value per entry.
EXPERIMENT DESCRIPTION: basal RPMI8226 mitochondrial membrane potential changes, profiling panel, cell-based, JC-1 fluorescence, 24 h, 100 nL compound (AID 1169); also: test concentration not given here
TEST CONDITIONS: RPMI8226 myeloma, JC-1 mitochondrial potential fluorescence, higher = more signal

The following molecules have reported results that may help.
> print(dat)
                           structure.smiles  result.value
1  COc1ccc(CCN2C(=O)[C@@]3(Cc4ccccc42)c2ccccc2C(=O)N(Cc2ccccc2OC)[C@H]3c2ccc(CO)cc2)cc1         0.718
2  CCOC(=O)C1=CC[C@@H](c2cccc(Cl)c2)N(S(=O)(=O)c2ccc(C)cc2)C1        -0.043

// next entry
Ask: Could you please provide reported z-score for C=C(COC)/C(=C/C[C@H](OC(C)=O)c1ccc(OCCO)cc1)c1cc(C(=O)OC)ccc1OC ? Thanks!
Reply: 0.0179

----------
EXPERIMENT DESCRIPTION: A549 lung cancer cell viability effects, profiling panel, resazurin fluorescence, 24 h, PK04 Diversity Set (AID 1171); also: test concentration not given here
TEST CONDITIONS: higher = more signal, called active from +8 up or from −8 down
Consider the following partition of reported z-score into named classes: lower range (below 0.09), middle range (0.09 to below 0.5), upper range (0.5 or more)

Use these answered entries as a reference point.
> print(dat)
                                   compound  answer.label
1  COc1cc2c(cc1O)C(C)N(Cc1ccc([N+](=O)[O-])o1)CC2 (stereo unspecified)   lower range
2  CCOC(=O)C[C@H]1[C@H](OC(=O)c2ccccc2-c2ccccc2)[C@@H](NC(=O)c2ccc(-c3ccccc3)cc2)c2cc(OCCCO)ccc2N1C(=O)c1ccc2ccccc2n1   upper range
3  COC(=O)CCCCCCC(=O)Nc1ccc(NC(=O)CCCC[P+](c2ccccc2)(c2ccccc2)c2ccccc2)cc1   upper range
4  CC(CO)N1C(=O)[C@@H]2[C@H]3C(=O)OCC=C[C@H]3OC23C=CCN(C(C)(C)C)C(=O)[C@@H]13 (stereo partly specified)   lower range
5  CN(C)C(=O)C1N=C(c2ccc(OCCCO)cc2)N(c2ccccc2)O1 (stereo unspecified)  middle range

Ask: Form field 'band' for COC(=O)[C@@]1(Cc2ccc(OC)cc2)[C@H]2c3cc(C(=O)N4CCCC4)n(Cc4c(-c5ccccc5)noc4C)c3C[C@H]2CN1C(=O)c1ccccc1
Reply: middle range

Ask: Form field 'band' for CN(C)CCCNC(=O)[C@@]1(C)c2ccccc2C(=O)N(Cc2ccccc2)[C@H]1c1ccc(CO)cc1
Reply: middle range

Ask: Form field 'band' for CCCC[C@@H]1C[C@H]1[C@@H](NC(=O)c1cccs1)c1ccc(C(F)(F)F)cc1
Reply: upper range

Ask: Form field 'band' for CC(C)N1C(=O)C[C@@](C(=O)NCCCN(C)C)(c2ccc([N+](=O)[O-])cc2)[C@H]1c1ccc(CO)cc1
Reply: lower range

Ask: Form field 'band' for NCCCCCCNC(=O)[C@@H]1C[C@@H]2C(=O)N[C@@H](CCCCN)C(=O)N2[C@@H]1c1cccc(OCCO)c1
Reply: upper range
